# MEASURED_TARGET: T1, Human hepcidin peptide (hepcidin-25) (human)
# T1 construct: Synthetic 25 aa peptide; also called hep-25; Hep-25
# T1 peptide: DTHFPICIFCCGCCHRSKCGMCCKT
# METHOD: titration affinity ELISA, hepcidin 100 ng/well on Nunc Immobilizer Amino plate, CHO supernatant; antibody 50 ng/ml
For each record, write down the corresponding OD 450 nm.
Numbers only, in OD450.

BINDER	UNIT_TEXT	OD 450 nm
BAP070-hum02 (antibody, IgG1, V domains shown, Expressed as soluble IgG1 in CHO cells, tested as supernatant; The entries stop inside FR4) VH: QVQLVQSGAEVKKPGASVKVSCKASGYTFTNYGMNWVRQARGQRLEWIGWINTYTGEPTYADDFKGRLTISKDTSKNQVVLTMTNMDPVDTATYYCTTYATSWYWGQG VL: AIQLTQSPSSLSASVGDRVTITCRASESVDSYGNSFMHWYQQKPGKAPKLLIYRASNLESGIPARFSGSGSGTEFTLTISSLQSEDFAVYYCQQSNEDLTFG	OD450	2.98

Alright, here's another binder for you.
What value of OD 450 nm has been reported for the following binder? BAP070-01 (human-mouse chimeric MAb 583) (antibody, human IgG1, kappa, V domains shown, used as CHO cell supernatant; also called BAP070-1) VH: QIQLVQSGPELKKPGETVKISCKASGYTFTNYGMNWVKQAPGKGLKWMGWINTYTGEPTYADDFKGRFAFSLETSASTAYLQINNLKNEDTATYFCTTYATSWYWGQGTLVTVSS VL: DIVLTQSPASLAVSLGQRATISCRASESVDSYGNSFMHWYQQKPGQPPKLLIYRASNLESGIPARFSGSGSRTDFTLTINPVEADDVATYYCQQSNEDLTFGQGTKVEIKR
3
